Target: Sodium channel protein type 9 subunit alpha (Homo sapiens, UniProt Q15858)
Sequence (Q15858 whole entry): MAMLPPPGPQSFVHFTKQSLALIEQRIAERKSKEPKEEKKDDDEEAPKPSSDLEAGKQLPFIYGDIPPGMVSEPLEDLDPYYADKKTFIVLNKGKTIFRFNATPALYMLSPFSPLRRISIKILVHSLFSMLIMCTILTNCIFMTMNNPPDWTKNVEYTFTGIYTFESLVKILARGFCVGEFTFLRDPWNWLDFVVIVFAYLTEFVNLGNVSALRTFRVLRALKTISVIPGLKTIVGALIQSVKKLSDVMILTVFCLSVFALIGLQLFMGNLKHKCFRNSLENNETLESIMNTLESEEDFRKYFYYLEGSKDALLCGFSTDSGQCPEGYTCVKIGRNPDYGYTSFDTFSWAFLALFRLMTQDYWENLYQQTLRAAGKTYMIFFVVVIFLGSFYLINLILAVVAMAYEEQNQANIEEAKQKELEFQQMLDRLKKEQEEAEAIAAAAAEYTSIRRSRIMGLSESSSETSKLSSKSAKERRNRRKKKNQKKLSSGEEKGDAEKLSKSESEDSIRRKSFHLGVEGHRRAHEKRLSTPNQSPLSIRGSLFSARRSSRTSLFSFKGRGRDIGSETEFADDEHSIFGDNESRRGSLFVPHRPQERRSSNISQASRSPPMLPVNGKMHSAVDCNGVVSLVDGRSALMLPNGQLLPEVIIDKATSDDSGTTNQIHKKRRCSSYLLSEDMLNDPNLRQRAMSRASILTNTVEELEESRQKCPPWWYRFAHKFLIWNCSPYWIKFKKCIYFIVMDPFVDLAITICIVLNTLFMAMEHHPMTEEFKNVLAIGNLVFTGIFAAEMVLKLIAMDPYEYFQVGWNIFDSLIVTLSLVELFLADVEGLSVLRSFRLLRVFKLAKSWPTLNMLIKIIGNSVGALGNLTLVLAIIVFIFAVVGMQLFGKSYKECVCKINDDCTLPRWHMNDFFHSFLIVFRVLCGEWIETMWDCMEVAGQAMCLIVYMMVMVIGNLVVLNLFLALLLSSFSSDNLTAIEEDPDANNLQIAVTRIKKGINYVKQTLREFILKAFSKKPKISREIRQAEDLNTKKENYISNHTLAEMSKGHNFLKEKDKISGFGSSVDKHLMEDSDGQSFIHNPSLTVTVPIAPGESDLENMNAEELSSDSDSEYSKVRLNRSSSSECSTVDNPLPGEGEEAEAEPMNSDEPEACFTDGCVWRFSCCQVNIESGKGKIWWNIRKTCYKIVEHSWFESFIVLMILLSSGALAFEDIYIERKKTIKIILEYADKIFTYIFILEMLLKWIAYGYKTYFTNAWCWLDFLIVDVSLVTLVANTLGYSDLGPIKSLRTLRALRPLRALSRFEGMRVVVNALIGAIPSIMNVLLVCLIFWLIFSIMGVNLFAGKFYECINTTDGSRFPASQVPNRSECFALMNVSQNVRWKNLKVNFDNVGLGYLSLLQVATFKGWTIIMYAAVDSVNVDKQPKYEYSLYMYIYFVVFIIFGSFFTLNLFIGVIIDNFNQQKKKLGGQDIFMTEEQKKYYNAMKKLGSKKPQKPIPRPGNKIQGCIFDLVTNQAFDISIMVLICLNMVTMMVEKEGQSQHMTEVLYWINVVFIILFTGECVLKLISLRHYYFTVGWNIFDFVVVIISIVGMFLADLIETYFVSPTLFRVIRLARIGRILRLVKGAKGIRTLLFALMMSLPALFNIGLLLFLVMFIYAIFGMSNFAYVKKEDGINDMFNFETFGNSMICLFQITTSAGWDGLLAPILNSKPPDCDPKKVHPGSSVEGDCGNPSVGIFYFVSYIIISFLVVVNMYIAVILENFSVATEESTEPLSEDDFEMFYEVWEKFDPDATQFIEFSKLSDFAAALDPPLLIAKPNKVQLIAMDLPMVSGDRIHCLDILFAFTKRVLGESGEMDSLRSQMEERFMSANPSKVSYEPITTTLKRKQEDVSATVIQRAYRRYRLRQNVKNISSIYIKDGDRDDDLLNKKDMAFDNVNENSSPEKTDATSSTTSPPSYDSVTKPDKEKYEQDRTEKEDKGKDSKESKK
Experiment: Blockade of human Nav1.7 by FRET assay
Examples of compounds with documented IC50 follow.

INPUT SMILES	RELATION	IC50 / nM
CC(C)N1C(=O)[C@H](NC(=O)[C@@H](Cc2cccc(F)c2)NC(=O)OC(C)(C)C)CCc2ccccc21	=	9
CC(C)N1C(=O)[C@H](NC(=O)[C@@H](Cc2ccccc2)NC(=O)OC(C)(C)C)CCc2ccccc21	=	45
CC(C)N1C(=O)[C@H](NC(=O)[C@@H](Cc2ccccc2C(F)(F)F)NC(=O)OC(C)(C)C)CCc2ccccc21	=	137
CN1CCCC[C@@H](NC(=O)[C@@H](Cc2ccccc2)NC(=O)OC(C)(C)C)C1=O	>	1000
CN1C(=O)[C@H](NC(=O)[C@H](N)Cc2ccccc2)N=C(c2ccccc2)c2ccccc21	>	1000
CC(C)N1C(=O)[C@H](NC(=O)[C@@H](Cc2ccc(C(F)(F)F)cc2)NC(=O)OC(C)(C)C)CCc2ccccc21	>	1000
CN1C(=O)[C@H](NC(=O)[C@@H](Cc2ccccc2)NC(=O)C(C)(C)C)N=C(c2ccccc2)c2ccccc21	=	380
CC(C)N1C(=O)[C@H](NC(=O)[C@@H](Cc2c(F)cccc2F)NC(=O)OC(C)(C)C)CCc2ccccc21	=	14

----------
Molecular target: Sodium channel protein type 9 subunit alpha (Homo sapiens, UniProt Q15858)
Test: Blockade of human Nav1.7 by FRET assay
pIC50: −log10 of the molar value.
Each item that follows carries a reported pIC50.

INPUT SMILES	RELATION	pIC50
CN1C(=O)[C@H](NC(=O)[C@@H](Cc2cscn2)NC(=O)OC(C)(C)C)N=C(c2ccccc2)c2ccccc21	=	6.16
CC(C)(C)OC(=O)N[C@H](Cc1ccccc1)C(=O)N[C@@H]1CCc2ccccc2N(CC(F)(F)F)C1=O	=	6.82
CC(C)(C)OC(=O)N[C@H](Cc1ccccc1)C(=O)N[C@@H]1CCc2ccccc2N(CC2CC2)C1=O	=	7.11
CN1C(=O)[C@H](NC(=O)[C@@H](Cc2ccccc2)NC(=O)OCc2ccccc2)N=C(c2ccccc2)c2ccccc21	=	6.82
COC(=O)N[C@H](Cc1ccccc1)C(=O)N[C@@H]1N=C(c2ccccc2)c2ccccc2N(C)C1=O	<	6.00
CN1C(=O)[C@H](NC(=O)[C@@H](Cc2ccccc2)NS(=O)(=O)c2ccccc2)N=C(c2ccccc2)c2ccccc21	<	6.00
CN1C(=O)[C@H](NC(=O)[C@@H](Cc2ccccc2)NC(=O)OC(C)(C)C)N=C(c2ccccc2)c2ccccc21	=	6.90
CN1C(=O)[C@H](NC(=O)[C@@H](CCc2ccccc2)NC(=O)OC(C)(C)C)N=C(c2ccccc2)c2ccccc21	=	6.62
CN1C(=O)[C@H](NC(=O)[C@@H](Cc2ccccc2F)NC(=O)OC(C)(C)C)N=C(c2ccccc2)c2ccccc21	=	7.06
CC(C)S(=O)(=O)N[C@H](Cc1ccccc1)C(=O)N[C@@H]1N=C(c2ccccc2)c2ccccc2N(C)C1=O	<	6.00
CN1C(=O)[C@H](NC(=O)[C@@H](Cc2ccccc2)NCCC(C)(C)C)N=C(c2ccccc2)c2ccccc21	<	6.00
CN1C(=O)[C@H](NC(=O)[C@@H](Cc2ccccc2)NC(=O)OC(C)(C)C)CCc2ccccc21	=	6.72
CC(C)N1C(=O)[C@H](NC(=O)[C@@H](Cc2ccccc2F)NC(=O)OC(C)(C)C)CCc2ccccc21	=	7.36
CC(C)N1C(=O)[C@H](NC(=O)[C@@H](Cc2cc(F)ccc2F)NC(=O)OC(C)(C)C)CCc2ccccc21	=	7.64
CN1C(=O)[C@H](NC(=O)[C@@H](Cc2cccnc2)NC(=O)OC(C)(C)C)N=C(c2ccccc2)c2ccccc21	=	6.01
CN1C(=O)[C@H](NC(=O)[C@@H](Cc2ccc(F)cc2)NC(=O)OC(C)(C)C)N=C(c2ccccc2)c2ccccc21	=	7.15

----------
Biological target: hERG (KCNH2) (Homo sapiens)
Sequence (Q12809 whole entry): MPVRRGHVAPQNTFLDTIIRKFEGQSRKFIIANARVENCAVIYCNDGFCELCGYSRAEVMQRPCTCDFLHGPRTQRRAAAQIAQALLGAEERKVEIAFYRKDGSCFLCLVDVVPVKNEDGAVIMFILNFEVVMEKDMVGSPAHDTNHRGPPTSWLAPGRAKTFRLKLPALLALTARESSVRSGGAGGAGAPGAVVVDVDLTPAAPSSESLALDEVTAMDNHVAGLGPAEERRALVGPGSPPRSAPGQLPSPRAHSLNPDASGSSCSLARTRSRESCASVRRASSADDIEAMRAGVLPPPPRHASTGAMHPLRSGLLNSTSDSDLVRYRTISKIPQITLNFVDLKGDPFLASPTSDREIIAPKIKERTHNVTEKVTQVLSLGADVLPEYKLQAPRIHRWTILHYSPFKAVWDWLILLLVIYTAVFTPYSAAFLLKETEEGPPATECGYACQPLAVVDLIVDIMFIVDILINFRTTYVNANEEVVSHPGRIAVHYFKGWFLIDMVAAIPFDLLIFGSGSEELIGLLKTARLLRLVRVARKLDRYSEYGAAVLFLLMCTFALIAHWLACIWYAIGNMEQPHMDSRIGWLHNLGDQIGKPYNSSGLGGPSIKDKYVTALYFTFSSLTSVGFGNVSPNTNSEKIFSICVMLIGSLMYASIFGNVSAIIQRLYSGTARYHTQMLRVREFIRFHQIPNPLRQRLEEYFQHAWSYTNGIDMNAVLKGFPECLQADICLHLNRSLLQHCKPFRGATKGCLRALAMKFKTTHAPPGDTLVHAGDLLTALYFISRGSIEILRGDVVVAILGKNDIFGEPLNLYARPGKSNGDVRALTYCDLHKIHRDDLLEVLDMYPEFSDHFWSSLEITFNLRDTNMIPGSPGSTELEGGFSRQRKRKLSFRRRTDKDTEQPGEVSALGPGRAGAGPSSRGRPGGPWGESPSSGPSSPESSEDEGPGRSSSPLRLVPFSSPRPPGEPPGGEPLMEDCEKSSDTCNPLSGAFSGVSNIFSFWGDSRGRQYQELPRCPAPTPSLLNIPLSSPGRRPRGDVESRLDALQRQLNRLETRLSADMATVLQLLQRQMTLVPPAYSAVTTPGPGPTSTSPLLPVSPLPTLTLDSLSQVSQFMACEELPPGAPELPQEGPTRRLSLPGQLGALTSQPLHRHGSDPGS
Assay: Displacement of [35S]-MK0499 from human ERG receptor expressed in HEK293 cells at 10 uM
Format: cell-based
Conditions: HEK293 cells expressing human ERG, probe [35S]-MK0499

INPUT SMILES	TESTED SYSTEM	VALUE UNITS	inhibition at 10 µM
CC(C)N1C(=O)[C@H](NC(=O)[C@@H](Cc2cccc(C(F)(F)F)c2)NC(=O)OC(C)(C)C)CCc2ccccc21	hERG (KCNH2) (Homo sapiens)	%	15
CC(C)N1C(=O)[C@H](NC(=O)[C@@H](Cc2c(F)cccc2C(F)(F)F)NC(=O)OC(C)(C)C)CCc2ccccc21	hERG (KCNH2) (Homo sapiens)	%	43
CC(C)(C)OC(=O)N[C@H](Cc1ccccc1)C(=O)N[C@@H]1CCc2ccccc2N(CC(F)(F)F)C1	hERG (KCNH2) (Homo sapiens)	%	40
CN1C[C@H](NC(=O)[C@@H](Cc2ccccc2)NC(=O)OC(C)(C)C)CCc2ccccc21	hERG (KCNH2) (Homo sapiens)	%	28
CC(C)N1C(=O)[C@H](NC(=O)[C@@H](Cc2ccccc2C(F)(F)F)NC(=O)OC(C)(C)C)CCc2ccccc21	hERG (KCNH2) (Homo sapiens)	%	34
CC(C)N1C(=O)[C@H](NC(=O)[C@@H](Cc2ccc(F)cc2)NC(=O)OC(C)(C)C)CCc2ccccc21	hERG (KCNH2) (Homo sapiens)	%	0
CC(C)N1C(=O)[C@H](NC(=O)[C@@H](Cc2cc(F)ccc2F)NC(=O)OC(C)(C)C)CCc2ccccc21	hERG (KCNH2) (Homo sapiens)	%	6
CC(C)N1C(=O)[C@@H](NC(=O)[C@@H](Cc2ccccc2OC(F)(F)F)NC(=O)OC(C)(C)C)CCc2ccccc21	hERG (KCNH2) (Homo sapiens)	%	20
CC(C)N1C(=O)[C@H](NC(=O)[C@@H](Cc2ccccc2)NC(=O)OC(C)(C)C)CCc2ccccc21	hERG (KCNH2) (Homo sapiens)	%	6
CC(C)N1C(=O)[C@H](NC(=O)[C@@H](Cc2cccc(F)c2)NC(=O)OC(C)(C)C)CCc2ccccc21	hERG (KCNH2) (Homo sapiens)	%	8
CC(C)(C)OC(=O)N[C@H](Cc1ccccc1)C(=O)N[C@@H]1CCc2ccccc2N(CC2CC2)C1=O	hERG (KCNH2) (Homo sapiens)	%	15
CC(C)(C)OC(=O)N[C@@H](CN[C@@H]1CCc2ccccc2N(CC(F)(F)F)C1=O)Cc1ccccc1	hERG (KCNH2) (Homo sapiens)	%	79

----------
pIC50 overview
Biological target: Sodium channel protein type 9 subunit alpha (Homo sapiens)
Experiment: Blockade of human Nav1.7 by FRET assay
pIC50: −log10 of the molar value.
MEASUREMENT LABEL: pIC50

INPUT SMILES	RESULT
CC(C)N1C(=O)[C@H](NC(=O)[C@@H](Cc2ccc(F)cc2)NC(=O)OC(C)(C)C)CCc2ccccc21	7.01
CN1C(=O)[C@H](NC(=O)[C@@H](Cc2ccccc2)NS(C)(=O)=O)N=C(c2ccccc2)c2ccccc21	< 6.00
CN1C[C@H](NC(=O)[C@@H](Cc2ccccc2)NC(=O)OC(C)(C)C)CCc2ccccc21	< 6.00
CN1C(=O)[C@H](NC(=O)CCc2ccccc2)N=C(c2ccccc2)c2ccccc21	< 6.00
